Reference source for all entries: the METLIN SMRT retention time set (Domingo-Almenara et al. 2019)

# measurement.description: gradient 5% acetonitrile 3 min, to 50% in 2 min, to 85% in 15 min, held 3 min, 100 µL/min
# reported.conditions: column: Zorbax Extend-C18 2.1 x 50 mm; eluents: water / acetonitrile, 0.1% formic acid
Catalogue of RP-LC retention time values

compound	RP-LC retention time / s
Cc1ccc(CN2C[C@@H]3C(=O)N(Cc4ccc5c(c4)OCO5)C(=O)[C@@H]3C2)cc1C	691
O=C(c1ccc(Cl)c(Cl)c1)N1CCN(c2nc(-c3ccccc3)cs2)CC1	1210
Cc1ccc2nc(C(=O)NCc3ccc(Cl)cc3)cn2c1	718
O=C(C1CCCC1)N1CC(c2nc(-c3ccc(F)cc3)no2)C2(CCOCC2)C1 (centres undefined)	958
